Property: self-cleavage kobs at 10000 uM GlcN6P; scope: individual variants
B1: glmS ribozyme (parent)
chain: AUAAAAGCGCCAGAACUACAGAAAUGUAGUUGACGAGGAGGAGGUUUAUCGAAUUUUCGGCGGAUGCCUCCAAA

Variants of: B1
Protocol Description: self-cleavage kobs at 10000 uM GlcN6P; higher = faster cleavage; RNA array
Settings: with glucosamine-6-phosphate
Variants at the floor of the assay were thinned out.
Readout Name: self-cleavage kobs at 10000 uM GlcN6P (s⁻¹)

{"Mutation Key": "G7U G9C C11G A12C U55A", "Result Modifier": "<", "Observed Value": "1e-05"}
{"Mutation Key": "U30C G59U", "Result Modifier": "<", "Observed Value": "1e-05"}
{"Mutation Key": "A14C G38C G60U", "Result Modifier": "<", "Observed Value": "1e-05"}
{"Mutation Key": "C8A A42G G66U", "Result Modifier": "<", "Observed Value": "1e-05"}
{"Mutation Key": "C58U G59C C61G G62C A64G U65A G66U", "Result Modifier": "<", "Observed Value": "1e-05"}
{"Mutation Key": "A15U A52U", "Result Modifier": "=", "Observed Value": 0.000119}
{"Mutation Key": "U31G G43C U45G", "Result Modifier": "=", "Observed Value": 0.000273}
{"Mutation Key": "U49G U56A", "Result Modifier": "=", "Observed Value": 0.000466}
{"Mutation Key": "G51C U55G", "Result Modifier": "<", "Observed Value": "1e-05"}
{"Mutation Key": "G40U U46C A53U", "Result Modifier": "=", "Observed Value": 0.000745}
{"Mutation Key": "C70G C71U", "Result Modifier": "=", "Observed Value": 0.00011}
{"Mutation Key": "U55A C71U", "Result Modifier": "=", "Observed Value": 0.0549}
{"Mutation Key": "U49G C71U", "Result Modifier": "=", "Observed Value": 0.000902}
{"Mutation Key": "C70A", "Result Modifier": "=", "Observed Value": 0.00384}
{"Mutation Key": "C8G U45C G62A", "Result Modifier": "<", "Observed Value": "1e-05"}
{"Mutation Key": "C16A A52C", "Result Modifier": "<", "Observed Value": "1e-05"}
{"Mutation Key": "G41A U54G", "Result Modifier": "=", "Observed Value": 0.000661}
{"Mutation Key": "A14C A39G C58G", "Result Modifier": "=", "Observed Value": "8.88e-05"}
{"Mutation Key": "G32C U54A U56G", "Result Modifier": "=", "Observed Value": "3.42e-05"}
{"Mutation Key": "A6U U30A A36C", "Result Modifier": "<", "Observed Value": "1e-05"}
{"Mutation Key": "U46G U55C G66A", "Result Modifier": "=", "Observed Value": 0.00269}
{"Mutation Key": "A39G G40C", "Result Modifier": "=", "Observed Value": "8.35e-05"}
{"Mutation Key": "C11A A42U G51U G60C", "Result Modifier": "<", "Observed Value": "1e-05"}
{"Mutation Key": "C16G G32C C70U A73C", "Result Modifier": "=", "Observed Value": 0.000111}
{"Mutation Key": "G29U G41C", "Result Modifier": "=", "Observed Value": "3.1e-05"}
{"Mutation Key": "G32U C70G", "Result Modifier": "=", "Observed Value": "7.56e-05"}
{"Mutation Key": "A6G U54G", "Result Modifier": "=", "Observed Value": 0.000251}
{"Mutation Key": "G9C G40A", "Result Modifier": "<", "Observed Value": "1e-05"}
{"Mutation Key": "G9U G13C", "Result Modifier": "<", "Observed Value": "1e-05"}
{"Mutation Key": "G7U G59A", "Result Modifier": "<", "Observed Value": "1e-05"}
{"Mutation Key": "G29U A52U", "Result Modifier": "=", "Observed Value": "8.41e-05"}
{"Mutation Key": "G35C G62U", "Result Modifier": "<", "Observed Value": "1e-05"}
{"Mutation Key": "G40A A64U", "Result Modifier": "=", "Observed Value": "2.07e-05"}
{"Mutation Key": "C8U G29C", "Result Modifier": "<", "Observed Value": "1e-05"}
{"Mutation Key": "C10G G40U U46C C71U", "Result Modifier": "<", "Observed Value": "1e-05"}
{"Mutation Key": "G29U U47G", "Result Modifier": "=", "Observed Value": 0.000787}
{"Mutation Key": "C11U U31G", "Result Modifier": "=", "Observed Value": 0.00565}
{"Mutation Key": "C11G G35C G63U C67A", "Result Modifier": "<", "Observed Value": "1e-05"}
{"Mutation Key": "G40C G41U C71A", "Result Modifier": "=", "Observed Value": 0.000104}
{"Mutation Key": "G7C A15C G41A", "Result Modifier": "<", "Observed Value": "1e-05"}
{"Mutation Key": "A15C U31C G51C U56G C70G", "Result Modifier": "<", "Observed Value": "1e-05"}
{"Mutation Key": "G43A A52C C58A G66U C67G U69G", "Result Modifier": "<", "Observed Value": "1e-05"}
{"Mutation Key": "G59A C68A U69A", "Result Modifier": "<", "Observed Value": "1e-05"}
{"Mutation Key": "U30G G63A", "Result Modifier": "<", "Observed Value": "1e-05"}
{"Mutation Key": "G9A C61A", "Result Modifier": "<", "Observed Value": "1e-05"}
{"Mutation Key": "U31G A39U", "Result Modifier": "=", "Observed Value": 0.0106}
